Ref: PubChem BioAssay (EPA / NIEHS)

- Read-out: matrix metalloproteinase-10 (MMP10), MMP10 (gene 4319)
- protocol_description: LTEA_HepaRG_MMP10: Life Technologies and Expression Analysis (LTEA) Assay for matrix metalloproteinase-10 (MMP10) using HepaRG (AID 2283517)
- experimental_conditions: mRNA level, 48 h; actives raise or lower the signal
- Experimental: LTEA_HepaRG is a cell based, multiplexed-readout assay that uses HepaRG, a human liver cell line, with measurements taken at 48 hours after chemical dosing on a 96-well plate.LTEA_HepaRG_MMP10 is one of 102 assay component(s) measured in the LTEA HepaRG cell culture assay. It is a marker of Fibrosis.Data from the assay component LTEA_HepaRG_MMP10 was analyzed into 1 endpoint. […]
Calls of active or inactive are those of the source. Rule for the calls: active = hit-call score of the fitted dose curve at least 0.9, where 1 is the maximum; inactive = score below 0.9.
Possible outcomes: 1.0 = active, 0.0 = inactive

molecule=ClC1=C(Cl)C(Cl)(Cl)C(Cl)=C1Cl group_label=0.0
molecule=Nc1cccc2c(N)cccc12 group_label=0.0
molecule="CCCCC(CC)COC(=O)CCCCC(=O)OCC(CC)CCCC (stereo not drawn)" group_label=0.0
molecule=CC(C)(C)c1cccc(C(C)(C)C)c1O group_label=0.0
molecule=Cc1oc(-c2ccccc2)nc1CCOc1ccc(C[C@H](Nc2ccccc2C(=O)c2ccccc2)C(=O)O)cc1 group_label=1.0
molecule="CC(O)CO (stereo not drawn)" group_label=0.0
molecule=CCCCCCCCC(=O)O group_label=0.0
molecule=CN1CCC[C@H]1c1cccnc1 group_label=0.0
molecule=C[C@@H]1C[C@H]2[C@@H]3CCC4=CC(=O)C=C[C@]4(C)[C@@]3(F)[C@@H](O)C[C@]2(C)[C@@]1(O)C(=O)COP(=O)(O)O group_label=0.0
molecule=C#C[C@]1(O)CC[C@H]2[C@@H]3CCC4=CC(=O)CC[C@@H]4[C@H]3CC[C@@]21C group_label=0.0
molecule=CC(=O)NC1(c2cccc(F)c2)CCN(CC[C@@]2(c3ccc(Cl)c(Cl)c3)CN(c3ccccc3)C(=O)CO2)CC1 group_label=1.0
molecule=Oc1cc2ccccc2c2ccccc12 group_label=0.0
molecule=CCC(=C(c1ccc(O)cc1)c1ccc(OCCN(C)C)cc1)c1ccccc1 group_label=1.0
molecule="N#C[C@@H]1CC(F)(F)CN1C(=O)CNC1CC2CCC(C1)N2c1ncccn1 (stereo partly drawn)" group_label=0.0
molecule=CC(C)(C)CC(C)(C)c1ccc(O)c(-n2nc3ccccc3n2)c1 group_label=0.0
molecule=CN1CCN(c2ccccc2/C=C2\SCCN(c3ccc(Cl)c(Cl)c3)C2=O)CC1 group_label=1.0
molecule=Cc1cc(CCN2CCN(c3nsc4ccccc34)CC2)cc2c1NC(=O)CC2(C)C group_label=0.0
molecule=Oc1cccc(O)c1 group_label=0.0
molecule=CCCOc1sc(C(=O)N2CCC(c3cc(CN)ccc3F)CC2)c(C)c1Br group_label=0.0
molecule=OCCC(F)(F)C(F)(F)C(F)(F)C(F)(F)C(F)(F)C(F)(F)C(F)(F)C(F)(F)F group_label=0.0
molecule=c1ccc2cc3c(ccc4ccccc43)cc2c1 group_label=0.0
molecule=CC(C)(C)c1cc(C(C)(C)C)c(O)c(C(C)(C)C)c1 group_label=0.0
molecule=CC(C)CCCCCCOC(=O)CCCCC(=O)OCCCCCCC(C)C group_label=0.0
